test: Vasopressin concentration in blood samples (HPLC-MS/MS) after tibial IO or IV administration in a hypovolemic cardiac arrest model; type: in vivo, Yorkshire swine; conditions: male, Yorkshire, pig, serum; IV, 40 units; mean ± standard deviation, n=8; SD
OBSERVED_PROPERTY: Tmax (min)
Quick reminder: number only, in min, skip the unit.

The reported value for NC(=O)CC[C@@H]1NC(=O)[C@H](Cc2ccccc2)NC(=O)[C@H](Cc2ccc(O)cc2)NC(=O)[C@@H](N)CSSC[C@@H](C(=O)N2CCC[C@H]2C(=O)N[C@@H](CCCN=C(N)N)C(=O)NCC(N)=O)NC(=O)[C@H](CC(N)=O)NC1=O [vasopressin] in terms of Tmax is 1.43

----------
assay: Vasopressin concentration in blood samples (HPLC-MS/MS) after tibial IO or IV administration in a hypovolemic cardiac arrest model; type: in vivo, Yorkshire swine; conditions: male, Yorkshire, pig, serum; tibial IO, 40 units; mean ± standard deviation, n=7; SD
OBSERVED_PROPERTY: Tmax (min)
Quick reminder: number only, in min, skip the unit.

The reported value for "NC(=O)CC[C@@H]1NC(=O)[C@H](Cc2ccccc2)NC(=O)[C@H](Cc2ccc(O)cc2)NC(=O)[C@@H](N)CSSC[C@@H](C(=O)N2CCC[C@H]2C(=O)N[C@@H](CCCN=C(N)N)C(=O)NCC(N)=O)NC(=O)[C@H](CC(N)=O)NC1=O" in terms of Tmax is 2.63

----------
test: Vasopressin concentration in blood samples (HPLC-MS/MS) after tibial IO or IV administration in a hypovolemic cardiac arrest model; format: in vivo, Yorkshire swine; settings: Yorkshire, pig, serum; IV (auricular vein) push, 40 units, during CPR; male swine 60-80 kg, 31% blood volume hemorrhage, ventricular fibrillation; femoral artery samples 0.5-4 min; HPLC-MS/MS; mean ± standard deviation, n=8
OBSERVED_PROPERTY: Cmax
Field: value (include unit after the number)

The reported value for NC(=O)CC[C@@H]1NC(=O)[C@H](Cc2ccccc2)NC(=O)[C@H](Cc2ccc(O)cc2)NC(=O)[C@@H](N)CSSC[C@@H](C(=O)N2CCC[C@H]2C(=O)N[C@@H](CCCN=C(N)N)C(=O)NCC(N)=O)NC(=O)[C@H](CC(N)=O)NC1=O [vasopressin] in terms of Cmax is 106 ng/mL

----------
assay: Vasopressin concentration in blood samples (HPLC-MS/MS) after tibial IO or IV administration in a hypovolemic cardiac arrest model; type: in vivo, Yorkshire swine; settings: male, Yorkshire, serum; IV, 40 units; 60 seconds after injection; mean ± standard error, n=8; SEM
OBSERVED_PROPERTY: level at 1 min

The reported value for NC(=O)CC[C@@H]1NC(=O)[C@H](Cc2ccccc2)NC(=O)[C@H](Cc2ccc(O)cc2)NC(=O)[C@@H](N)CSSC[C@@H](C(=O)N2CCC[C@H]2C(=O)N[C@@H](CCCN=C(N)N)C(=O)NCC(N)=O)NC(=O)[C@H](CC(N)=O)NC1=O [vasopressin] in terms of level at 1 min is 76.8 ng/mL

----------
assay: Vasopressin concentration in blood samples (HPLC-MS/MS) after tibial IO or IV administration in a hypovolemic cardiac arrest model; format: in vivo, Yorkshire swine; conditions: male, Yorkshire, serum; tibial IO, 40 units; 60 seconds after injection; mean ± standard error, n=7; SEM
OBSERVED_PROPERTY: level at 1 min (ng/mL)
Quick reminder: number only, in ng/mL, skip the unit.

The reported value for "NC(=O)CC[C@@H]1NC(=O)[C@H](Cc2ccccc2)NC(=O)[C@H](Cc2ccc(O)cc2)NC(=O)[C@@H](N)CSSC[C@@H](C(=O)N2CCC[C@H]2C(=O)N[C@@H](CCCN=C(N)N)C(=O)NCC(N)=O)NC(=O)[C@H](CC(N)=O)NC1=O" in terms of level at 1 min is 23.6
